# assay details: in vitro
# stated conditions: rat, gh3-tre-luc cells, AC50 (uM) modified / 1000
Counter-ions that a name gives are not always drawn.
Each entry below lists one item and its recorded CC50 at 24 h value.

[
  {
    "molecule": "CC(=O)/C=C/C1=C(C)CCCC1(C)C",
    "CC50 at 24 h": "> 90 µM"
  },
  {
    "molecule": "CC(O)C1CCCCC1 (centres unmarked)",
    "CC50 at 24 h": "> 90 µM"
  },
  {
    "molecule": "CCOC(=O)[C@H](CCc1ccccc1)N[C@@H](C)C(=O)N1[C@H](C(=O)O)C[C@@H]2CCC[C@@H]21",
    "CC50 at 24 h": "> 50 µM"
  },
  {
    "molecule": "Cc1ccccc1Br",
    "CC50 at 24 h": "> 90 µM"
  },
  {
    "molecule": "CCOc1ccc2[nH]cc(C(=O)NCc3ccccc3)c(=O)c2n1",
    "CC50 at 24 h": "> 90 µM"
  },
  {
    "molecule": "CCO[Si](CC(C)C)(OCC)OCC",
    "CC50 at 24 h": "> 90 µM"
  },
  {
    "molecule": "CCCCCCCC/C=C\\CCCCCCCC(=O)O",
    "CC50 at 24 h": "> 90 µM"
  },
  {
    "molecule": "Oc1ccc2ccc3cccc4ccc1c2c34 [1-Hydroxypyrene]",
    "CC50 at 24 h": "> 90 µM"
  },
  {
    "molecule": "FC(F)(F)c1cccc(Cl)c1 [3-Chlorobenzotrifluoride]",
    "CC50 at 24 h": "> 90 µM"
  },
  {
    "molecule": "CCOC(=O)[C@H](CCc1ccccc1)N[C@H]1CCc2ccccc2N(CC(=O)O)C1=O [Benazepril hydrochloride]",
    "CC50 at 24 h": "5.95 µM"
  },
  {
    "molecule": "CCC(C)OC(C)CC (centres unmarked)",
    "CC50 at 24 h": "> 100 µM"
  },
  {
    "molecule": "O=C(O)c1ccc(CO)o1 [5-(Hydroxymethyl)-2-furoic acid]",
    "CC50 at 24 h": "> 90 µM"
  },
  {
    "molecule": "Cc1cc2nc(N)sc2cc1C",
    "CC50 at 24 h": "> 90 µM"
  },
  {
    "molecule": "CCC(=O)OCCOc1ccccc1 [Phenoxyethyl propionate]",
    "CC50 at 24 h": "> 90 µM"
  }
]
